# System tested: human Sortilin (human, UniProt Q99523 78-830); also: test concentration or dose not given here
# Run description: cell-based or functional assay
Result type: Percent reduction of Sortilin levels in U251 cells (%)
Enter your answer as a number in %; do not include the unit.

Quick one: Percent reduction of Sortilin levels in U251 cells for anti-Sortilin antibody S-51 (antibody, V domains shown) VH: QVQLVESGGGVVQPGRSLRLSCAASGFTFSSYGMHWVRQAPGKGLEWVAVISYDGSNKYYADSVKGRFTISRDNSKNTLYLQMNSLRAEDTAVYYCAKGLEYYDSSRLYYPYYYYMDVWGKGTTVTVSS VL: EIVLTQSPATLSLSPGERATLSCRASQSVSSYLAWYQQKPGQAPRLLIYDASKRATGIPARFSGSGSGTDFTLTISSLEPEDFAVYYCQQRSNYPITFGGGTKVEIK ?
75.9

Next binder: anti-Sortilin antibody S-74 (antibody, V domains shown) VH: QVQLQESGPGLVKPSQTLSLTCTVSGGSISSGTYYWSWIRQHPGKGLEWIGYIYYSGSTYYNPSLKSRVTISVDTSKNQFSLKLSSVTAADTAVYYCARGVGRYRVADYWGQGTLVTVSS VL: EIVMTQSPATLSLSPGERATLSCRASQSVSSYLAWYQQKPGQAPRLLIYDSSNRATGIPARFSGSGSGTDFTLTISSLEPEDFAVYYCQQETNMPPITFGGGTKVEIK
22.1

Next binder: anti-Sortilin antibody S-69 (antibody, V domains shown) VH: QVQLQESGPGLVKPSQTLSLTCTVSGGSISSGGYYWSWIRQHPGKGLEWIGYIYYSGSTYYNPSLKSRVTISVDTSKNQFSLKLSSVTAADTAVYYCARDRGGTHFGADHYYYGMDVWGQGTMVTVSS VL: EIVMTQSPATLSVSPGERATLSCRASQSVSSSLAWYQQKPGQAPRLLIYGASTRATGIPARFSGSGSGTEFTLTISSLQSEDFAVYYCQQAADWPITFGGGTKVEIK
23

Next binder: anti-Sortilin antibody S-83 (antibody, V domains shown) VH: QLQLQESGPGLVKPSETLSLTCTVSGGSISSSSYYWGWIRQPPGKGLEWIGSIYYSGSTYYNPSLKSRVTISVDTSKNQFSLKLSSVTAADTAVYYCARGSPTWLRDYYMDVWGKGTTVTVSS VL: EIVLTQSPATLSVSPGERATLSCRASQSVSSNLAWYQQKPGQAPRLLIYGASTRATGIPARFSGSGSGTEFTLTISSLQSEDFAVYYCQQYNAFPPTFGGGTKVEIK
48.1

Next binder: anti-Sortilin antibody S-21 (antibody, V domains shown) VH: QVQLVQSGAEVKKPGSSVKVSCKASGGTFSSYAISWVRQAPGQGLEWMGSIIPIFGTANYAQKFQGRVTITADESTSTAYMELSSLRSEDTAVYYCARERRYDGYYYYYGMDVWGQGTTVTVSS VL: DIQMTQSPSSLSASVGDRVTITCRASQSISSYLNWYQQKPGKAPKLLIYAASSLQSGVPSRFSGSGSGTDFTLTISSLQPEDFATYYCQQKASLPFTFGGGTKVEIK
78.7

Next binder: anti-Sortilin antibody S-76 (antibody, V domains shown) VH: QVQLQESGPGLVKPSQTLSLTCTVSGGSISSGGYYWSWIRQHPGKGLEWIGSIYYSGSTYYNPSLKSRVTISVDTSKNQFSLKLSSVTAADTAVYYCARGVGIQQQLVLGFDPWGQGTLVTVSS VL: DIQMTQSPSSLSASVGDRVTITCRASQSISSFLNWYQQKPGKAPKLLISAASSLQSGVPSRFSGSGSGTDFTLTISSLQPEDFATYYCQQSYREPITFGGGTKVEIK
20.3

Next binder: anti-Sortilin antibody S-55 (antibody, V domains shown) VH: QVQLQESGPGLVKPSETLSLTCAVSGYSISSGYYWGWIRQPPGKGLEWIGSIYHSGSTYYNPSLKSRVTISVDTSKNQFSLKLSSVTAADTAVYYCARGRPELGWDKYFQHWGQGTLVTVSS VL: DIQMTQSPSSVSASVGDRVTITCRASQGISRWLAWYQQKPGKAPKLLIYAASSLQSGVPSRFSGSGSGTDFTLTISSLQPEDFATYYCQQANALPTFGGGTKVEIK
73

Next binder: anti-Sortilin antibody S-26 (antibody, V domains shown) VH: EVQLVESGGGLVKPGGSLRLSCAASGFTFSSYSMNWVRQAPGKGLEWVSSISSSSSYIYYADSVKGRFTISRDNAKNSLYLQMNSLRAEDTAVYYCARDRLGRGYKWNWFDPWGQGTLVTVSS VL: DIQMTQSPSSVSASVGDRVTITCRASQGIDSWLAWYQQKPGKAPKLLIYAASSLQSGVPSRFSGSGSGTDFTLTISSLQPEDFATYYCQQGNSLPPITFGGGTKVEIK
17.1

Next binder: anti-Sortilin antibody S-15 (antibody, V domains shown) VH: QVQLVQSGAEVKKPGASVKVSCKASGYTFTSYYMSWVRQAPGQGLEWMGIINPSGGSTSYAQKFQGRVTMTRDTSTSTVYMELSSLRSEDTAVYYCARDPSGIAAAGPASRYYYGMDVWGQGTTVTVSS VL: EIVMTQSPATLSVSPGERATLSCRASQSVSSNLAWYQQKPGQAPRLLIYGASTRATGIPARFSGSGSGTEFTLTISSLQSEDFAVYYCQQARLGPWTFGGGTKVEIK
87.8

Next binder: anti-Sortilin antibody S-14 (antibody, V domains shown) VH: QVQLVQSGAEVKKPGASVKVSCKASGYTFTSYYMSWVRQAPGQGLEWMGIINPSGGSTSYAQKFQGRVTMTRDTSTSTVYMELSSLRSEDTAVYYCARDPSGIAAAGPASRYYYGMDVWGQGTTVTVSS VL: DIQMTQSPSSLSASVGDRVTITCRASQSISSYLNWYQQKPGKAPKLLIYGASSLQSGVPSRFSGSGSGTDFTLTISSLQPEDFATYYCQQHYVGPFTFGGGTKVEIK
75.4
